Reported SPOT peptide array binding signal intensity is given for each of the following binders.
Target: AgHse1
Assay: SPOT peptide array binding signal intensity (averaged, normalized) (arbitrary units (background-subtracted, floor 0; scale differs between SH3 domains)); higher = stronger binding of the SH3 domain to the peptide
Simply state the number, no unit and no words.

PLRRTVMSLPGNHDI 302

Lookup: What SPOT peptide array binding signal intensity value was documented for this binder, NLPKRKPPKLQGPFS ?
Found: 1020

Lookup: Now consider PPPPPPPPPPLPQSL .
Found: 18

Lookup: Now consider EAEEAAPQLPSRSSA .
Found: 3.5

Lookup: Now consider MSPLGAPPPPPHKDH .
Found: 23

Lookup: Now consider TIRRRAPLSLLESHT .
Found: 730

Lookup: Now consider VPPVPLPFGIPPFPM .
Found: 51
